TARGET_UNDER_TEST: Melanin-concentrating hormone receptor 1 (Homo sapiens)
Sequence (Q99705 whole entry): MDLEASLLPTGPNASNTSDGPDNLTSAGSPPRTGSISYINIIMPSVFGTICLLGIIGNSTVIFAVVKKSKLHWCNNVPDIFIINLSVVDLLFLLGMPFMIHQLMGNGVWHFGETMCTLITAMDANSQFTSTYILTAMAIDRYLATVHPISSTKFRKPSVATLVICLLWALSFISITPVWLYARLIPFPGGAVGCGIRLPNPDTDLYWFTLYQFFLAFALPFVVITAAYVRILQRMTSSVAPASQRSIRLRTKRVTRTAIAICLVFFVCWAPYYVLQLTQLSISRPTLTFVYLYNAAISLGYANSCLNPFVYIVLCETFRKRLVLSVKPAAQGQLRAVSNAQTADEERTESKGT
TEST_NAME: Displacement of [125I]MCH from human MCHR1 expressed in HEK293 cells
Type: cell-based
EXPERIMENTAL_ENDPOINT: IC50 (nM)

FC(F)(F)c1ccc(-n2ccc(CN3CCC(NCCOc4cccc(Cl)c4)CC3)c2)cc1 = 636
O=C(COc1cccc(Cl)c1)NC1CCCN(Cc2ccn(-c3ccc(C(F)(F)F)cn3)c2)C1 (centres undefined) = 3050
Cc1c(-c2ccccc2)[nH]c(=O)n1C1CCN(Cc2ccn(-c3ccc(C(F)(F)F)cc3)c2)CC1 = 26

I: Fc1ccc(-c2c[nH]c(C3CCN(Cc4ccn(-c5ccc(C(F)(F)F)cc5)c4)CC3)n2)cc1
II: O=C(COc1cccc(Cl)c1)NC1CCN(Cc2ccc3[nH]ccc3c2)CC1
III: O=C(COc1cccc(Cl)c1)NC1CCN(Cc2ccn(-c3ccc(C(F)(F)F)cn3)c2)CC1
IV: O=C(COc1cccc(Cl)c1)NC1CCN(Cc2ccc(-c3ccc(C(F)(F)F)cn3)o2)CC1
V: Cc1cc(CN2CCC(NC(=O)COc3cccc(Cl)c3)CC2)c(C)n1-c1ccccc1
Problem: Could you please sort these 5 entries by IC50 from high to low? Answer format: list of labels, ordered as asked.
Solution: V, II, IV, III, I
(V: 9650 nM, II: 2340 nM, IV: 927 nM, III: 48 nM, I: 20 nM)
